Biological target: T1, sRAGE-6×HIS (AA 23-352, NP_001127) (human, UniProt Q15109 23-331)
T1 construct: range 23-352; Printed as a fusion protein with limits 23-352 on NP_001127; also called human sRAGE-6×HIS; RAGE receptor; not shown: 6×HIS tag
T1 sequence (Q15109 other isoform, or with tags, fused parts or gaps limits assumed, form in doubt): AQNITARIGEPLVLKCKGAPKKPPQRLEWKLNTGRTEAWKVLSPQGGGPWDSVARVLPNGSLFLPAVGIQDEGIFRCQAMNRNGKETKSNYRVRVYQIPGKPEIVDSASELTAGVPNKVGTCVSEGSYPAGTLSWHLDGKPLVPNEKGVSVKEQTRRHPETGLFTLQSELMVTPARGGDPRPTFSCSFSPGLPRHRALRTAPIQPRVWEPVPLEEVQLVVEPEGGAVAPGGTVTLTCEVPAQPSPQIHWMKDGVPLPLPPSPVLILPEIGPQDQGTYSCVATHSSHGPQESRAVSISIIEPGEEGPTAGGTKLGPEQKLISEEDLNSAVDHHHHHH
Experiment: AlphaScreen, biotinylated peptide and sRAGE-6×HIS
Protocol: The entire homogeneous assay was carried out in 25 mM HEPES, 100 mM NaCl of pH 7.4 and 0.1% BSA in a volume of 20 μl. The individual components were brought together in a defined time sequence. […] The various amounts of peptide were then added in order, after a further 30 minutes, to add the donor beads. After a further 60 minutes, the fluorescence was measured in the AlphaQuest instrument from Perkin-Elmer with a time lag of one second. Each measured point was determined as triplicate. […]
No end group written: not given here.

binder | EC50 (nM)
CKGAPKKPPQRLE (also: biotinylated, position not given here (AlphaScreen assays only), also called Nterm 13) [NtermR13] | 66
